Sourced from patent US20230357364A1

kon values by entry
Molecular target: SARS-CoV-2 RBD (RBD-2) (SARS-CoV-2)
Assay: SPR, Fc-captured IgG
Give your result in M⁻¹ s⁻¹ as a bare value.

L12.cP08D07 (antibody, V domains shown, human IgG1) VH: QVQLQESGPGLVKPSETLSLTCTVSGGSISSSSYYWGWIRQPPGKGLEWIGSIYYSGSTYYNPSLKSRVTISVDTSKNQFSLKLSSVTAADTAVYYCARQGDCSTTSCAYDYWGQGTLVTVSS VL: SYELTQPPSVSVSPGQTARITCSGDALPKQYAYWYQQKPGQAPVLVIYKDSERPSGIPERFSGSSSGTTATLTISGVQAEDEADYYCQSADSSGTYLVVFGGGTKLAVL; 636000

Ask | # input binder: L12.cP09C07 (antibody, V domains shown, human IgG1) VH: QVQLVQSGAEVKKPGASVKVSCKASGYIYSGYFMHWVRQAPGQGLEWMGWISPDSGGANYAQTFQGRVTMTRDTSTTTAHMELSRLRSDDTAVYYCARGPRYSGTHFDYWGQGTLVTVSS VL: QSALTQPASVSGSPGQSLTISCTGTSSDVGGYNYVSWYQQHPDKAPKLMIYDVNNRPSGVSNRFSGSKSGSTASLTISGLQAEDEADYYCSSYAGSSTQVFGGGTKLIVL ; wanted: its kon
Reply | 786000
